- Test system: eIF2α in HEK293-EGFP-eIF2α cells
- measurementProtocol: PERK Cellular Assay (HEK293-EGFP-eIF2α cells, tunicamycin-induced ER stress, TR-FRET)
- Format: cell-based
- settings: tunicamycin 2 hours
Can you tell me IC50 for the items I'm about to list?

Request: What IC50 appears in the records for this molecule with eIF2α in HEK293-EGFP-eIF2α cells? [2H]C([2H])([2H])c1nc(-c2ccc(NC(=O)C(O)c3cccc(F)c3)c(F)c2F)c2c(N)ncc(Cl)n12 (stereo not shown) [Example 136]
Result: 1 to 25 nM

Request: Please answer likewise for [2H]C([2H])([2H])c1nc(-c2ccc(NC(=O)C(O)c3cccc(F)c3)c(F)c2F)c2c(N)ncc(Cl)n12 (stereo not shown) [Example 137]
Result: 251 to 500 nM

Request: What would you report for Cc1c(-c2nc(C)n3c(C)cnc(N)c23)ccc(NC(=O)C(O)c2cccc(F)c2)c1F (stereo not shown) [Example 168] ?
Result: 251 to 500 nM

Request: Also, [2H]C([2H])([2H])c1nc(-c2ccc(NC(=O)C(O)c3cccc(F)c3)c(F)c2F)c2c(N)ncc(C)n12 (stereo not shown) [Example 132] please.
Result: 1 to 25 nM

Request: Same again, this time with [2H]C([2H])([2H])c1nc(-c2cnc(NC(=O)C(O)c3cccc(F)c3)cc2C)c2c(N)nc(C)cn12 (stereo not shown) [Example 178]
Result: 4000 to 5000 nM

Request: Try [2H]C([2H])([2H])c1nc(-c2ccc(NC(=O)C(O)c3cccc(Cl)c3)cc2F)c2c(N)nc(C)cn12 (stereo not shown) [Example 81] next.
Result: 101 to 250 nM

Request: Okay, and [2H]C([2H])([2H])c1nc(-c2ccc(NC(=O)C(O)c3cccc(Cl)c3)cc2F)c2c(N)ncc(C(F)(F)F)n12 (stereo not shown) [Example 82] ?
Result: 1 to 25 nM
